Target: T1, human NGF (human, UniProt P01138 122-241)
T1 construct: also called human Nerve Growth Factor; hN
T1 chain: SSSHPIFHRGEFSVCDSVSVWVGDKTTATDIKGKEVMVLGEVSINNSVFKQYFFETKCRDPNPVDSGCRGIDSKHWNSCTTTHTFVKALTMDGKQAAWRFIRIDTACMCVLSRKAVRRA
Experiment: SPR (Biacore T200), 100 nM mAb on NGF chip, similarity to parent mAb
measurement_type: Percent Similarity Score (KD on hN) (%)
Give just the numeric value; % need not be written.

See these solved cases before continuing.
[[record]]
binder = "can9L12VH_G102A (antibody, V domains shown) VH: EVQLVESGGDLVKPGGSLRLSCVASGFTFSSHGMHWVRQSPGKGLQWVAVINSGGSSTYYTDAVKGRFTISRDNAKNTVYLQMNSLRAEDTAMYYCAKESVAGWEQLVGPHFDYWGQGTLVIVSS VL: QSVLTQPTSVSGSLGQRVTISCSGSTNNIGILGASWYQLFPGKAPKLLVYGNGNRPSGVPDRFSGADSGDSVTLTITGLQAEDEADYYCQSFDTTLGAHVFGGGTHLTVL"
readout_value = 3.4

[[record]]
binder = "can9L12VH_T28A (antibody, V domains shown) VH: EVQLVESGGDLVKPGGSLRLSCVASGFAFSSHGMHWVRQSPGKGLQWVAVINSGGSSTYYTDAVKGRFTISRDNAKNTVYLQMNSLRAEDTAMYYCAKESVGGWEQLVGPHFDYWGQGTLVIVSS VL: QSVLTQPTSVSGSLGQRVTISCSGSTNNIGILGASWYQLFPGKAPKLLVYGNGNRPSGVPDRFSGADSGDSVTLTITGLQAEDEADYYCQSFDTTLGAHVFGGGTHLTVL"
readout_value = 96.6

[[record]]
binder = "can48L2VL_A100L (antibody, V domains shown, CDR scanning mutant of ZTS-842 (48L2)) VH: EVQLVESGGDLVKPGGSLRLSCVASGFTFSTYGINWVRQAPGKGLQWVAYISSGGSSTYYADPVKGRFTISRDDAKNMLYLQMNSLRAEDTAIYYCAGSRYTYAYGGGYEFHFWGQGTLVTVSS VL: QAVLNQPASVSGALGQKVTISCSGSTMDIDIFGVSWYQQLPGKAPKLLVDSDGDRPSGIPDRFSGSRSGNSGTLTITGLQAEDEADYHCQSGDSTLGALLIFGGGTHVTVL"
readout_value = 99.9

[[record]]
binder = "can9L12VH_G54A (antibody, V domains shown) VH: EVQLVESGGDLVKPGGSLRLSCVASGFTFSSHGMHWVRQSPGKGLQWVAVINSAGSSTYYTDAVKGRFTISRDNAKNTVYLQMNSLRAEDTAMYYCAKESVGGWEQLVGPHFDYWGQGTLVIVSS VL: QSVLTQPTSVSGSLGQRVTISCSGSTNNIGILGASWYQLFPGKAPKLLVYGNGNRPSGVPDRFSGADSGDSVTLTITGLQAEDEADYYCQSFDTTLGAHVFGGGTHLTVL"
readout_value = 96.2


Please look up its Percent Similarity Score (KD on hN): can9L12VH_W104A (antibody, V domains shown) VH: EVQLVESGGDLVKPGGSLRLSCVASGFTFSSHGMHWVRQSPGKGLQWVAVINSGGSSTYYTDAVKGRFTISRDNAKNTVYLQMNSLRAEDTAMYYCAKESVGGAEQLVGPHFDYWGQGTLVIVSS VL: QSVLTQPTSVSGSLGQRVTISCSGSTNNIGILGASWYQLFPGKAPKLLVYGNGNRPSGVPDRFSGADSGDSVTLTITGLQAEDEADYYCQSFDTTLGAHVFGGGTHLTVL
5.2

These entries and their values trace back to patent US20210221899A1.
